The following compounds are shown together with reported IC50 values.
Target: γ-secretase (Homo sapiens, UniProt P49768)
Construct: endogenous in cells
Test: In vitro γ-secretase activity assay, Aβ42 production (ECL)
Type: biochemical
Conditions: in vitro inhibition of γ-secretase activity that generates Aβ42; 2.5 hr at 37° C., ECL detection
Kindly format the answer as number then unit.

COMPOUND: O=c1sc2ccccc2c(O)c1C(c1cc(F)c(F)c(F)c1)c1c(O)c2ccccc2sc1=O [Compound 53]
OBSERVED_RESULT: 0.5 µM
--
COMPOUND: CCc1ccc(C(c2c(O)c3ccccc3oc2=O)c2c(O)c3ccccc3oc2=O)cc1 [Compound 210]
OBSERVED_RESULT: 1.9 µM
--
COMPOUND: O=C(Cc1cc(F)cc(F)c1)c1c(O)c2ccccc2oc1=O [Compound 560]
OBSERVED_RESULT: 26.9 µM
--
COMPOUND: COc1ccc(C(c2c(O)c3ccccc3oc2=O)c2c(O)c3ccccc3oc2=O)cc1F [Compound 77]
OBSERVED_RESULT: 2.8 µM

# input for lookup
Reported IC50 for γ-secretase (Homo sapiens, UniProt P49768), given Cc1ccc2oc(=O)c(C(c3cc(F)c(F)c(F)c3)c3c(O)c4cc(C)ccc4oc3=O)c(O)c2c1 [Compound 197] ?
1.59 µM
